Assignment: determine reported pIC50 for the given compounds.
target: Nav1.7 (or SCN9A) channel (Homo sapiens, UniProt Q15858); construct: expressed in transfected cells; assay: Nav1.7 (hSCN9A) block, whole-cell electrophysiology on the PatchXpress platform; assay type: cell-based; details: estimated IC50 from single point electrophysiology data, HEK cells stably expressing hSCN9A, prepulse to V1/2, read-out: Nav1.7 EIC50
Sequence (Q15858 whole entry): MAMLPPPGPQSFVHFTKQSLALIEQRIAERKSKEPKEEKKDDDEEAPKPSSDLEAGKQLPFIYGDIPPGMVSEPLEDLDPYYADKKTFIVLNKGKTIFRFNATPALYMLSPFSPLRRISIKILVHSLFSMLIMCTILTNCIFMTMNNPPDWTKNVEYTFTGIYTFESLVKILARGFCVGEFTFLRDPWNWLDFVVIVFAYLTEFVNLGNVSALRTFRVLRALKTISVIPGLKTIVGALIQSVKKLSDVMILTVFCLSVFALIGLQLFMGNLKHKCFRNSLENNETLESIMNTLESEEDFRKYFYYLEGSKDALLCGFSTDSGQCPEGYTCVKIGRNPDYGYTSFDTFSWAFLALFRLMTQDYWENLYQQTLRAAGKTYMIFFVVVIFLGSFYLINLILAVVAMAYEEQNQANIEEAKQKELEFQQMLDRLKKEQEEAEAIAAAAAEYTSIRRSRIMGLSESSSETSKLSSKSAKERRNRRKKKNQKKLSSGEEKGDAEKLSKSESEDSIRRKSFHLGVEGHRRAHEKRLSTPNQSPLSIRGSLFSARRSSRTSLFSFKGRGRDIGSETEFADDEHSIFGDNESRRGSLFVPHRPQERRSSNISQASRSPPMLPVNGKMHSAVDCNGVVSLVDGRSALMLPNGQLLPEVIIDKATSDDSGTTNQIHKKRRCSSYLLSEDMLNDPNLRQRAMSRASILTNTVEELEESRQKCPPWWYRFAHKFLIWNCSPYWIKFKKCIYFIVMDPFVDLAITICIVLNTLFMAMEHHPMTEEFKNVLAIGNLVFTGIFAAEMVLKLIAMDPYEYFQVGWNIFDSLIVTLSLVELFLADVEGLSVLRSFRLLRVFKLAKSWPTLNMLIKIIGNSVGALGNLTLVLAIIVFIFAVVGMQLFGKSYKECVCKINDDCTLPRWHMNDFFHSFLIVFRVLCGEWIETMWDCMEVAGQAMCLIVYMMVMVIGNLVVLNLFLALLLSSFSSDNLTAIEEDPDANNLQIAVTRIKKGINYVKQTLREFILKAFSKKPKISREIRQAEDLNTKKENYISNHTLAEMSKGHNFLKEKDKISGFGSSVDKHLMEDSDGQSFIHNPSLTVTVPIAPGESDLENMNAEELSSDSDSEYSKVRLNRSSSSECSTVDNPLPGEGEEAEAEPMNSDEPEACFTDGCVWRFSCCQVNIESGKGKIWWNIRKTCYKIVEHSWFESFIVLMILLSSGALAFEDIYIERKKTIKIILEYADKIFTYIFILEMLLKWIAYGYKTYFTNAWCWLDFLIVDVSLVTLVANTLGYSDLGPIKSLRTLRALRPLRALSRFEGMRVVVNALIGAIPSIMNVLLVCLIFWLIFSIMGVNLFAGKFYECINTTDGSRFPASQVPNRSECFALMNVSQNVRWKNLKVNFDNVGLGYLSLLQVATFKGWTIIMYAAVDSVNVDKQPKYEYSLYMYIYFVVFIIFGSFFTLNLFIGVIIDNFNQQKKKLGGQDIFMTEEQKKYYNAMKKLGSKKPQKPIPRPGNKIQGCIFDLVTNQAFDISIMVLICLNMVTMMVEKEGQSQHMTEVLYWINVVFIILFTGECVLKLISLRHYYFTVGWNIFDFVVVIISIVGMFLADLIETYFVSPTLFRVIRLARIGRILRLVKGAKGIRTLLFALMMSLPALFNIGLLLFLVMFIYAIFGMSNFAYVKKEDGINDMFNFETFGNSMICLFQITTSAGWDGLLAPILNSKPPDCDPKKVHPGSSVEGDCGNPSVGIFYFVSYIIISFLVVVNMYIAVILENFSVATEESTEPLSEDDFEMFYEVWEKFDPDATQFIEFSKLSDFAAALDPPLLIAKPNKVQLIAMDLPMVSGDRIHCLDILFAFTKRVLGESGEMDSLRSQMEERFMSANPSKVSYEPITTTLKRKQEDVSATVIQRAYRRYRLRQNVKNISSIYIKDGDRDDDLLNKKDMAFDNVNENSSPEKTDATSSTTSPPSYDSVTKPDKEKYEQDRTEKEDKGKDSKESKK
Give bare numbers, as −log10 of the molar value.

Some compounds with recorded pIC50:
                                  molsmiles  readoutkind  quantitativeresult
0  CN(C)S(=O)(=O)NC(=O)c1cc(F)c(COc2ccc(Cl)c(F)c2)cc1F        pIC50                6.07
1  CN(C)S(=O)(=O)NC(=O)c1cc(F)c(COc2ccc(C(F)(F)F)c(Cl)c2)cc1F        pIC50                6.96
2  CN(C)S(=O)(=O)NC(=O)c1ccc(COc2ccc(Cl)c(C(F)(F)F)c2)cc1        pIC50                5.82

Next item in the queue.
Any idea what its pIC50 is? The compound is CC(C)Oc1ncc(OCc2cc(F)c(C(=O)NS(=O)(=O)N(C)C)cc2F)cc1Cl
6.62

* * *

molecular target: Nav1.7 (or SCN9A) channel (Homo sapiens, UniProt Q15858); test: Nav1.7 (hSCN9A) block, whole-cell electrophysiology on the PatchXpress platform; details: estimated IC50 from single point electrophysiology data, HEK cells stably expressing hSCN9A, prepulse to V1/2, read-out: Nav1.7 EIC50
readoutKind: IC50 (nM)
Numbers only, in nM.

Example entries begin here.
In [3]: df
Out[3]:
                                  molsmiles  quantitativeresult
0  CN(C)S(=O)(=O)NC(=O)c1ccc(OCc2ccc(Cl)c(Cl)c2)cc1                2300
1  CN(C)S(=O)(=O)NC(=O)c1cc(F)c(COc2ccc(Cl)c(C(F)(F)F)c2)cc1F                 200
2  CN(C)S(=O)(=O)NC(=O)c1ccc(COc2ccc(C(F)(F)F)c(Cl)c2)cc1                 920
3  CN(C)S(=O)(=O)NC(=O)c1cc(F)c(COc2ccc(Cl)c(Cl)c2)cc1F                 350
4  O=C(NS(=O)(=O)N1CCC1)c1cc(Cl)c(COc2cnc(C3CC3)c(Cl)c2)cc1F                  90

Provide reported IC50 for each item, in the same order as listed.
1. CN(C)S(=O)(=O)NC(=O)c1cc(Cl)c(COc2cnc(C3CC3)c(Cl)c2)cc1F
2. CN(C)S(=O)(=O)NC(=O)c1cc(F)c(OCc2ccc(Cl)c(Cl)c2)cc1F
3. CC(C)Oc1ncc(OCc2cc(F)c(C(=O)NS(=O)(=O)N3CCC3)cc2F)cc1Cl
4. CC(C)Oc1ncc(COc2cc(F)c(C(=O)NS(=O)(=O)N(C)C)cc2F)cc1Cl
5. O=C(NS(=O)(=O)N1CC(F)(F)C1)c1cc(Cl)c(COc2cnc(C3CC3)c(Cl)c2)cc1F
6. CN(C)S(=O)(=O)NC(=O)c1cc(F)c(COc2ccc(F)c(Cl)c2)cc1F

1. 420
2. 1300
3. 150
4. 8300
5. 270
6. 580
